Data origin, for the record: ChEMBL document CHEMBL4342418

- Test system: ECa-109 cell line
- Protocol Details: Antiproliferative activity against human EC109 cells by MTT assay
- Format: functional, cell-based
Recorded IC50, one value per entry.

Reported IC50 for ECa-109 cell line, given `Cc1ccc(Cn2cc(CSc3nc(Nc4ccccc4)c4ccccc4n3)nn2)cc1` ?
0.57 to 7.13 µM

Others:
Reported IC50 for ECa-109 cell line, given `O=c1[nH]cc(F)c(=O)[nH]1` ?
6.5 to 14.6 µM

====

Recorded IC50, one value per entry.
- System: PC-3
- Protocol Details: Antiproliferative activity against human PC3 cells assessed as reduction in cell viability after 24 hrs by MTT assay
- Assay type: functional, cell-based
- Assay Conditions: PC-3, 24 h

For the compound shown here, `CC(=O)c1cccc(-n2cc(CO[C@H]3O[C@@H]4O[C@@]5(C)CC[C@H]6[C@H](C)CC[C@@H]([C@H]3C)[C@@]46OO5)nn2)c1` , give the reported IC50.
4.06 to 89.9 µM

====

- System: IMR-32
- Protocol Details: Antiproliferative activity against human IMR32 cells assessed as reduction in cell viability after 72 hrs by MTT assay
- Type: functional, cell-based
- Assay Conditions: IMR-32, 72 h
Recorded IC50, one value per entry.

Take a look at these entries with their results.
For the compound shown here, `Cc1n[nH]c(=O)c2c1c1cc(F)ccc1n2Cc1cn(Cc2ccc(F)cc2)nn1` , give the reported IC50.
42 to 478 nM

For the compound shown here, `Cc1n[nH]c(=O)c2c1c1cc(F)ccc1n2Cc1cn(C2CCCCC2)nn1` , give the reported IC50.
42 to 478 nM

Okay, next one:
For the compound shown here, `COc1cccc2c1C(=O)c1c(O)c3c(c(O)c1C2=O)C[C@@](O)(C(=O)CO)C[C@@H]3O[C@H]1C[C@H](N)[C@H](O)[C@H](C)O1` , give the reported IC50.
80 to 425 nM

====

- Test system: HL-60
- Protocol Details: Antiproliferative activity against human HL60 cells by MTT assay
- Assay type: functional, cell-based
Recorded Endpoint: IC50

Take a look at these entries with their results.
For the molecule shown here, `C[C@@H]1CC[C@H]2C[C@@H](OCc3cn(-c4ccnc5cc(Cl)ccc45)nn3)O[C@@H]3O[C@@]4(C)CC[C@@H]1[C@@]23OO4` , give the reported IC50.
5.7 to 19.5 µM

For the molecule shown here, CC1CCCCN1C(=O)c1ccc(-n2cc(CO[C@H]3O[C@@H]4O[C@@]5(C)CC[C@H]6[C@H](C)CC[C@@H]([C@H]3C)[C@@]46OO5)nn2)cc1 (stereo partly drawn) , give the reported IC50.
2.5 to 176 µM

Okay, next one:
For the molecule shown here, `C[C@H]1[C@@H](OCc2cn(-c3cccc(C(=O)N4CCCCC4)c3)nn2)O[C@@H]2O[C@@]3(C)CC[C@H]4[C@H](C)CC[C@@H]1[C@@]24OO3` , give the reported IC50.
2.5 to 176 µM

====

- Tested on: HeLa
- Protocol Details: Antiproliferative activity against human HeLa cells assessed as reduction in cell viability after 72 hrs by MTT assay
- Assay type: functional, cell-based
Recorded Endpoint: IC50

For the compound shown here, `O=c1cc(Cn2cc(-c3ccccc3)nn2)c2cc(O)c(O)cc2o1` , give the reported IC50.
9.7 to 81.9 µM

For the compound shown here, `COc1cccc(-c2cn(Cc3cc(=O)oc4cc(O)c(O)cc34)nn2)c1` , give the reported IC50.
9.7 to 81.9 µM

For the compound shown here, `CC(C)(C)c1ccc(-c2cn([C@H]3C[C@H]4[C@@H]5CCc6cc(OCc7ccccc7)ccc6[C@H]5CC[C@@]4(C)[C@@H]3O)nn2)cc1` , give the reported IC50.
2.4 to 8.3 µM

For the compound shown here, `COc1ccc(-c2cn(Cc3cc(=O)oc4cc(O)c(O)cc34)nn2)cc1` , give the reported IC50.
9.7 to 81.9 µM

For the compound shown here, `COc1ccccc1-c1cn(Cc2cc(=O)oc3cc(O)c(O)cc23)nn1` , give the reported IC50.
9.7 to 81.9 µM

For the compound shown here, `CCc1ccc(-c2cn([C@H]3C[C@H]4[C@@H]5CCc6cc(OCc7ccccc7)ccc6[C@H]5CC[C@@]4(C)[C@@H]3O)nn2)cc1` , give the reported IC50.
2.4 to 8.3 µM

====

- Test system: MDA-MB-231
- Protocol Details: cells
- Assay Conditions: Homo sapiens, MDA-MB-231, 96 h
- Description: Antiproliferative activity against human MDA-MB-231 cells assessed as reduction in cell viability incubated for 96 hrs under normaxic condition by MTT assay
Recorded Endpoint: pIC50
Please report pIC50 as the negative decimal logarithm of the molar concentration, giving only the number.

For the compound shown here, `COc1ccc(NC(=O)c2ccc(-n3cc(COc4cc(=O)oc5ccccc45)nn3)cc2)cc1OC` , give the reported pIC50.
5.87

====

- Test system: Lu1
- Protocol Details: Antiproliferative activity against human Lu1 cells by MTT assay
- Assay type: functional, cell-based
Recorded Endpoint: IC50

Reported IC50 for Lu1, given `C[C@H]1[C@@H](OCc2cn(-c3cccc(C(=O)N4CCN(c5ccccc5)CC4)c3)nn2)O[C@@H]2O[C@@]3(C)CC[C@H]4[C@H](C)CC[C@@H]1[C@@]24OO3` ?
2.5 to 176 µM

Reported IC50 for Lu1, given C[C@H]1[C@@H](O)O[C@@H]2O[C@@]3(C)CC[C@H]4[C@H](C)CC[C@@H]1[C@@]24OO3 [ARTENIMOL] ?
39.9 to 84.3 µM

Reported IC50 for Lu1, given `CCN1CCN(C(=O)c2cccc(-n3cc(CO[C@H]4O[C@@H]5O[C@@]6(C)CC[C@H]7[C@H](C)CC[C@@H]([C@H]4C)[C@@]57OO6)nn3)c2)CC1` ?
2.5 to 176 µM

Okay, next one:
Reported IC50 for Lu1, given `CCN(CC)C(=O)c1ccc(-n2cc(CO[C@H]3O[C@@H]4O[C@@]5(C)CC[C@H]6[C@H](C)CC[C@@H]([C@H]3C)[C@@]46OO5)nn2)cc1` ?
2.5 to 176 µM

====

- Test system: P388
- Protocol Details: Antiproliferative activity against mouse P388 cells by MTT assay
- Format: functional, cell-based
Recorded Endpoint: IC50

Take a look at these entries with their results.
For the compound shown here, `CCN1CCN(C(=O)c2ccc(-n3cc(CO[C@H]4O[C@@H]5O[C@@]6(C)CC[C@H]7[C@H](C)CC[C@@H]([C@H]4C)[C@@]57OO6)nn3)cc2)CC1` , give the reported IC50.
2.5 to 176 µM

For the compound shown here, `C[C@H]1[C@@H](OCc2cn(-c3cccc(C(=O)N4CCCC4)c3)nn2)O[C@@H]2O[C@@]3(C)CC[C@H]4[C@H](C)CC[C@@H]1[C@@]24OO3` , give the reported IC50.
2.5 to 176 µM

For the compound shown here, `C[C@H]1[C@@H](OCc2cn(-c3cccc(C(=O)N4CCOCC4)c3)nn2)O[C@@H]2O[C@@]3(C)CC[C@H]4[C@H](C)CC[C@@H]1[C@@]24OO3` , give the reported IC50.
2.5 to 176 µM

For the compound shown here, `CC1CCN(C(=O)c2ccc(-n3cc(CO[C@H]4O[C@@H]5O[C@@]6(C)CC[C@H]7[C@H](C)CC[C@@H]([C@H]4C)[C@@]57OO6)nn3)cc2)CC1` , give the reported IC50.
2.5 to 4.7 µM

For the compound shown here, `C[C@H]1[C@@H](OCc2cn(-c3ccc(C(=O)N4CCN(c5ccccc5)CC4)cc3)nn2)O[C@@H]2O[C@@]3(C)CC[C@H]4[C@H](C)CC[C@@H]1[C@@]24OO3` , give the reported IC50.
2.5 to 176 µM

Okay, next one:
For the compound shown here, `C[C@H]1[C@@H](O)O[C@@H]2O[C@@]3(C)CC[C@H]4[C@H](C)CC[C@@H]1[C@@]24OO3` , give the reported IC50.
39.9 to 84.3 µM

====

- Test system: DU-145
- Protocol Details: Antiproliferative activity against human DU145 cells by SRB assay
- Format: functional, cell-based
Recorded Endpoint: GI50

Reported GI50 for DU-145, given `Cc1ccc(-c2nn(Cc3cn(Cc4ccccc4F)nn3)c(=O)o2)cc1` ?
820 to 2390 nM

Others:
Reported GI50 for DU-145, given `Cc1ccc(-c2nn(Cc3cn(Cc4ccccc4)nn3)c(=O)o2)cc1` ?
820 to 2390 nM

Reported GI50 for DU-145, given `COc1ccc(/C=C/C(=O)c2cc(OC)c(OC)c(OC)c2)cc1OCc1cn(Cc2ccc(F)cc2)nn1` ?
1300 to 8200 nM

Reported GI50 for DU-145, given COC(=O)Nc1nc2cc(C(=O)c3cccs3)ccc2[nH]1 [NOCODAZOLE] ?
11 to 34 nM

Reported GI50 for DU-145, given `COc1ccc(/C=C/C(=O)c2cc(OC)c(OC)c(OC)c2)cc1OCc1cn(Cc2ccc(N)cc2)nn1` ?
1300 to 8200 nM

Reported GI50 for DU-145, given `O=c1oc(-c2ccccc2)nn1Cc1cn(Cc2ccccc2)nn1` ?
820 to 2390 nM
